Provenance of the data: ChEMBL document CHEMBL3992538

- assay info: Selectivity index, ratio of GI50 for human PANC1 cells to MIC for active stage of Mycobacterium tuberculosis H37Ra ATCC 25177 infected in human THP1 cells
- Type: toxicity, cell-based
- protocol conditions: PANC-1 cells, read-out: Selectivity Index
parameter: selectivity ratio
Answer with the value's number alone.

Lab book: selectivity ratio of CO[C@H]1/C=C/O[C@@]2(C)Oc3c(C)c(O)c4c(O)c(c(/C=N/N5CCN(C)CC5)c(O)c4c3C2=O)NC(=O)/C(C)=C\C=C\[C@H](C)[C@H](O)[C@@H](C)[C@@H](O)[C@@H](C)[C@H](OC(C)=O)[C@@H]1C [RIFAMPIN] noted as 196

The reported value for CCCCCCc1cc2c(=O)n(CCSc3nc(-c4cc(OC)c(OC)c(OC)c4)c(C#N)c(=O)[nH]3)cnc2s1 in terms of selectivity ratio is 2

====

Record form. Attribute: selectivity ratio. Fill in for each entry.
- assay info: Selectivity index, ratio of GI50 for human HeLa cells to MIC for dormant stage of Mycobacterium tuberculosis H37Ra ATCC 25177
- Type: toxicity, cell-based
- protocol conditions: read-out: Selectivity Index
Reply briefly: the number, and no unit.

Sure, the documented selectivity ratio for Cc1ccc(-c2nc(S)nc(O)c2C#N)cc1 is 2

Just so you know, measured selectivity ratio for COc1cc(-c2nc(SCCCn3cnc4sc5c(c4c3=O)CCCC5)n(CCCn3cnc4sc5c(c4c3=O)CCCC5)c(=O)c2C#N)cc(OC)c1OC came out at 3

# selectivity ratio of COc1cc(-c2nc(SCCCn3cnc4sc5c(c4c3=O)CCCC5)[nH]c(=O)c2C#N)cc(OC)c1OC = 2

Recorded selectivity ratio (compound CCCCCn1c(SCCCn2cnc3sc4c(c3c2=O)CCCC4)nc(-c2cc(OC)c(OC)c(OC)c2)c(C#N)c1=O ): 2

Reported selectivity ratio for CCCCCc1cc2c(=O)n(CCCSc3nc(-c4cc(OC)c(OC)c(OC)c4)c(C#N)c(=O)[nH]3)cnc2s1 was 6

Lab note: CO[C@H]1/C=C/O[C@@]2(C)Oc3c(C)c(O)c4c(O)c(c(/C=N/N5CCN(C)CC5)c(O)c4c3C2=O)NC(=O)/C(C)=C\C=C\[C@H](C)[C@H](O)[C@@H](C)[C@@H](O)[C@@H](C)[C@H](OC(C)=O)[C@@H]1C gave selectivity ratio of 208

Kindly note the recorded selectivity ratio for CCCCCCc1cc2c(=O)n(CCSc3nc(-c4cc(OC)c(OC)c(OC)c4)c(C#N)c(=O)[nH]3)cnc2s1 , which is 4

Value of selectivity ratio reported for the compound CCCc1cc2c(=O)n(CCCSc3nc(-c4cc(OC)c(OC)c(OC)c4)c(C#N)c(=O)[nH]3)cnc2s1 is 3

Record COc1cc(-c2nc(SCCCn3cnc4sc5c(c4c3=O)CCCC5)n(C)c(=O)c2C#N)cc(OC)c1OC . Reported selectivity ratio: 3

COc1cc(-c2[nH]c(=S)[nH]c(=O)c2C#N)cc(OC)c1OC yielded selectivity ratio of 4

Data point: CCCCCCCc1cc2c(=O)n(CCSc3nc(-c4cc(OC)c(OC)c(OC)c4)c(C#N)c(=O)[nH]3)cnc2s1 ; selectivity ratio = 4

The compound COc1cc(-c2nc(SCCCn3cnc4sc5c(c4c3=O)CCCC5)n(S(=O)(=O)c3ccc(C)cc3)c(=O)c2C#N)cc(OC)c1OC showed selectivity ratio equal to 2

Consider COc1cc(-c2nc(SCCCn3cnc4sc5c(c4c3=O)CCCC5)n(Cc3ccccc3)c(=O)c2C#N)cc(OC)c1OC . Its measured selectivity ratio is 2

====

- assay info: Selectivity index, ratio of GI50 for human A549 cells to MIC for dormant stage of Mycobacterium tuberculosis H37Ra ATCC 25177 infected in human THP1 cells
- Format: toxicity, cell-based
- protocol conditions: read-out: Selectivity Index
parameter: selectivity ratio
Please state the value as a number alone, without comment.

Recorded selectivity ratio (compound CCCCCCCc1cc2c(=O)n(CCSc3nc(-c4cc(OC)c(OC)c(OC)c4)c(C#N)c(=O)[nH]3)cnc2s1 ): 6

Entry COc1cc(-c2nc(SCCCn3cnc4sc5c(c4c3=O)CCCC5)n(CCCn3cnc4sc5c(c4c3=O)CCCC5)c(=O)c2C#N)cc(OC)c1OC , selectivity ratio reported as 3

Value of measured selectivity ratio for the entry COc1cc(-c2nc(SCCCn3cnc4sc5c(c4c3=O)CCCC5)n(C)c(=O)c2C#N)cc(OC)c1OC : 4

Input COc1cc(-c2nc(SCCCn3cnc4sc5c(c4c3=O)CCCC5)[nH]c(=O)c2C#N)cc(OC)c1OC . Output selectivity ratio: 3

So for CCCCCCCc1cc2c(=O)n(CCCSc3nc(-c4cc(OC)c(OC)c(OC)c4)c(C#N)c(=O)[nH]3)cnc2s1 , the logged selectivity ratio turned out to be 13

Per the record, N#Cc1c(-c2ccc(O)cc2)[nH]c(=S)[nH]c1=O has selectivity ratio of 3

Looking up CCCCCCc1cc2c(=O)n(CCSc3nc(-c4cc(OC)c(OC)c(OC)c4)c(C#N)c(=O)[nH]3)cnc2s1 , I found its selectivity ratio recorded as 5

====

- assay info: Selectivity index, ratio of GI50 for human A549 cells to MIC for dormant stage of Mycobacterium tuberculosis H37Ra ATCC 25177
- Format: toxicity
- protocol conditions: read-out: Selectivity Index
parameter: selectivity ratio

The compound CCCCCCCc1cc2c(=O)n(CCCSc3nc(-c4cc(OC)c(OC)c(OC)c4)c(C#N)c(=O)[nH]3)cnc2s1 showed selectivity ratio equal to 12

The compound listed as CCCCCn1c(SCCCn2cnc3sc4c(c3c2=O)CCCC4)nc(-c2cc(OC)c(OC)c(OC)c2)c(C#N)c1=O has a reported selectivity ratio of > 3

// COc1cc(-c2nc(SCCCn3cnc4sc5c(c4c3=O)CCCC5)n(C)c(=O)c2C#N)cc(OC)c1OC : selectivity ratio value = 4

The compound listed as CCCCCc1cc2c(=O)n(CCCSc3nc(-c4cc(OC)c(OC)c(OC)c4)c(C#N)c(=O)[nH]3)cnc2s1 shows selectivity ratio equal to > 8

Recorded result, CCCCCCCCCCCn1c(SCCCn2cnc3sc4c(c3c2=O)CCCC4)nc(-c2cc(OC)c(OC)c(OC)c2)c(C#N)c1=O , selectivity ratio: > 3

Just so you know, measured selectivity ratio for COc1cc(-c2[nH]c(=S)[nH]c(=O)c2C#N)cc(OC)c1OC came out at > 6

Notebook: COc1cc(-c2nc(SCCCn3cnc4sc5c(c4c3=O)CCCC5)n(CCCn3cnc4sc5c(c4c3=O)CCCC5)c(=O)c2C#N)cc(OC)c1OC , selectivity ratio read as < 3

Lab note: measured selectivity ratio of CCCCCCCc1cc2c(=O)n(CCSc3nc(-c4cc(OC)c(OC)c(OC)c4)c(C#N)c(=O)[nH]3)cnc2s1 was 5

====

- assay info: Cytotoxicity against human THP1 cells assessed as growth inhibition by MTT assay
- Assay type: cell-based
- protocol conditions: THP-1 cells
I'd be grateful if you could share measured GI50 for these entries.
Numeric only. Scale: µg/mL

Value of GI50 reported for the compound CCCCCCc1cc2c(=O)n(CCSc3nc(-c4cc(OC)c(OC)c(OC)c4)c(C#N)c(=O)[nH]3)cnc2s1 is 96.4

The measured GI50 associated with CCCCCCCc1cc2c(=O)n(CCCSc3nc(-c4cc(OC)c(OC)c(OC)c4)c(C#N)c(=O)[nH]3)cnc2s1 reads 68.2

Sure, the documented GI50 for Cc1ccc(-c2nc(S)nc(O)c2C#N)cc1 is 88.9

Lab note: COc1cc(-c2nc(SCCCn3cnc4sc5c(c4c3=O)CCCC5)[nH]c(=O)c2C#N)cc(OC)c1OC gave GI50 of 97.6

====

Record form. Attribute: selectivity ratio. Fill in for each entry.
- assay info: Selectivity index, ratio of GI50 for human A549 cells to MIC for active stage of Mycobacterium tuberculosis H37Ra ATCC 25177
- Assay type: toxicity
- protocol conditions: read-out: Selectivity Index
Answer field: number only, no words.

According to the records, this molecule CCCCCCc1cc2c(=O)n(CCCSc3nc(-c4cc(OC)c(OC)c(OC)c4)c(C#N)c(=O)[nH]3)cnc2s1 displays selectivity ratio of 3

Input CO[C@H]1/C=C/O[C@@]2(C)Oc3c(C)c(O)c4c(O)c(c(/C=N/N5CCN(C)CC5)c(O)c4c3C2=O)NC(=O)/C(C)=C\C=C\[C@H](C)[C@H](O)[C@@H](C)[C@@H](O)[C@@H](C)[C@H](OC(C)=O)[C@@H]1C . Output selectivity ratio: 244

N#Cc1c(-c2ccc(O)cc2)[nH]c(=S)[nH]c1=O yielded selectivity ratio of 3

Per the record, COc1cc(-c2nc(SCCCn3cnc4sc5c(c4c3=O)CCCC5)[nH]c(=O)c2C#N)cc(OC)c1OC has selectivity ratio of 4

Notebook: CCCCCCCc1cc2c(=O)n(CCSc3nc(-c4cc(OC)c(OC)c(OC)c4)c(C#N)c(=O)[nH]3)cnc2s1 , selectivity ratio read as 7

For reference, reported selectivity ratio for COc1cc(-c2nc(SCCCn3cnc4sc5c(c4c3=O)CCCC5)n(C)c(=O)c2C#N)cc(OC)c1OC stands at 3

Sample CCCCCCCc1cc2c(=O)n(CCCSc3nc(-c4cc(OC)c(OC)c(OC)c4)c(C#N)c(=O)[nH]3)cnc2s1 ; selectivity ratio observed: 3
